System: MDA-MB-231
assay-notes: shRNA barcode abundance ratio t_end/t_zero (depletion over 4 weeks of proliferation) (log2 ratio); higher = less depletion (weaker anti-proliferative effect of the shRNA)
applied-conditions: time after t zero 28 days
Below is a list of entries, each paired with its recorded shRNA barcode abundance ratio t end/t zero (log2) value.
property-measured: shRNA barcode abundance ratio t end/t zero (log2)

{"columns": ["polymer-sequence", "reported"],
 "data": [
  ["GCAGATTCAAGTCAATCTGAA (targeted gene: NFIA)", 0.355],
  ["ACGCTGATCGAGAATGGAGAA (targeted gene: NUP62)", -0.334],
  ["GCATGTTATGTTGTTCTTATT (targeted gene: XIAP)", 0.25],
  ["GGTGAAGATATATTCCTCCAA (targeted gene: PTEN)", 0.129],
  ["AGGCAATTTATCTTGATGTGA (targeted gene: FAIM3)", 0.137],
  ["GCAGAAGCTCTCCAAATTGAA (targeted gene: APAF1)", 0.521],
  ["CCACGCGACATCCAATCCATA (targeted gene: IL3)", -0.0678],
  ["CCTCAGATTGTTGTTGTTAAT (targeted gene: IL6)", 0.311],
  ["CGTAAGATGATGGATTTGATT (targeted gene: BIRC5)", 0.0401],
  ["TCTGAGGAAGAGATCATCAAA (targeted gene: PEA15)", -0.849],
  ["GGGTAGAAATTGGCTTCATAA (targeted gene: WRN)", -0.246],
  ["CGTTATTAACTTGTTATTTAG (targeted gene: API5)", 0.468],
  ["GGCTACTATGACCAATAGAAG (targeted gene: BFAR)", 0.107],
  ["GGCATCAGATGAATTGTTAAT (targeted gene: IL3)", 0.161],
  ["GGATGTTGGAAATTACTATTA (targeted gene: HDAC1)", 0.178],
  ["GGACTCTAGAATGTCCATATT (targeted gene: NUAK2)", 0.326],
  ["CCAGATTTCTTACCTACCATA (targeted gene: BIRC2)", 0.213],
  ["GGCCTGACAATGGTACCTATT (targeted gene: HDAC3)", -1.93],
  ["GCAGCTTCAGGTTTACTCAAA (targeted gene: CD28)", 0.127],
  ["ACTCTAATCTCCACATTTATA (targeted gene: XIAP)", 0.0933],
  ["GCACAACCAGTTCTGCAATAT (targeted gene: TAX1BP1)", 0.565],
  ["TCTCTTAAAGTTGATATCTTA (targeted gene: TNFAIP3)", 0.213],
  ["GAACTAGATCTGTTGCTTAAT (targeted gene: AVEN)", 0.231],
  ["CCAAGTAGACTCACTCCTTAA (targeted gene: BAG4)", -0.102],
  ["GCTATCTCTCCTGAAGCAATA (targeted gene: BCL2A1)", 0.264],
  ["CGACTTAGACTTGACCTATAT (targeted gene: PTEN)", -0.304],
  ["CGCAGATAGGAGTAGTCTTTA (targeted gene: NFIA)", 0.432],
  ["CCAATGATGCTGCTCAAGTTA (targeted gene: ABCB1)", 0.272],
  ["GCGTGCCATGACAAAGGATAA (targeted gene: HSPA8)", -0.885],
  ["GCGAAGAACCTTGTGTGACAA (targeted gene: BCL2)", -0.0784],
  ["ACTTACACTTAGAAATTAAAT (targeted gene: XIAP)", 0.473],
  ["CCCAGCAATAATTTAAACTTA (targeted gene: WRN)", 0.168],
  ["GCCACATGTCTTTGCTTGATA (targeted gene: NAIP)", 0.453],
  ["CCTTCGCCAGATCACTGTTAA (targeted gene: PRDX2)", 0.234],
  ["CAACGGAACTTGTTTGCTCTT (targeted gene: SOCS3)", -0.536],
  ["GCTGCTTCTGTCTGGTTTATT (targeted gene: THY1)", -0.0341],
  ["GCAGTAGCCTTGATAGATTAT (targeted gene: BIRC6)", -0.00928],
  ["GGAGTGAGATTGATCTGTTTA (targeted gene: ANXA5)", -0.0616],
  ["CGAGCCCTGGACACCAACTAT (targeted gene: TGFB1)", 0.183],
  ["ACCTGCAGAATAATAAAGTCA (targeted gene: S100A8)", -0.295],
  ["CCTGCCCATTAGAGAAGTATT (targeted gene: VHL)", -0.221],
  ["GCGTCGTTAATTTATTTCTTA (targeted gene: IER3)", 0.159],
  ["TGGGAAGAACTTTAAGGATAT (targeted gene: SORT1)", -0.167],
  ["CCGTTATGAAAGAGAAATGAA (targeted gene: HMGB1)", -0.0571]
]}

Cited source: the supplement of paper PMC2824726
